MEASURED_PARAMETER: melting point (°C)

| COMPOUND | MEASURED_PARAMETER | MEASURE_UNIT | READING |
| --- | --- | --- | --- |
| O=CNc1nc(-c2ccccc2)nc2c1c(-c1ccc(CO)o1)nn2Cc1ccccc1F | melting point | °C | 189 |
| CN(C)c1ncnc2c1c(-c1ccc(CO)o1)nn2Cc1ccccc1F | melting point | °C | 94 |
| Cc1nc2c(c(-c3ccc(CO)o3)nn2Cc2ccccc2)c(C)c1C | melting point | °C | 180 |
| Nc1nc(-c2ccccc2)nc2c1c(-c1ccc(CO)o1)nn2Cc1ccccc1F | melting point | °C | 225 |
| CN(C)[S+]([O-])c1ccc(-c2nn(Cc3ccccc3F)c3ncccc23)o1 (stereo not drawn) | melting point | °C | 107 |
| [O-][S+](c1ccc(-c2nn(Cc3ccccc3F)c3ncccc23)o1)N1CCCC1 (stereo not drawn) | melting point | °C | 107 |
| CC(C)NS(=O)(=O)c1ccc(-c2nn(Cc3ccccc3F)c3ncccc23)o1 | melting point | °C | 109 |
| Nc1ncnc2c1c(-c1ccc(CO)o1)nn2Cc1ccccc1F | melting point | °C | 207 |
| Cc1nc(-c2nn(Cc3ccccc3F)c3ncccc23)oc1CO | melting point | °C | 145 |
